# Measurement Protocol: Pharmacokinetics in plasma and the GI tract in dogs
# Type: in vivo
# Particulars: male, beagle, GI tissue (duodenum, ileum, cecum, colon) and plasma; dog, 5 mg/kg oral, 24 hours post dose; read-out: GI tissue to plasma ratio
Measure Name: Kp at 24 hours

q: # return recorded Kp at 24 hours for input Cc1cc(Nc2cc3ncccc3c(N[C@@H]3C[C@H]4CC[C@@H](C3)N4CCC#N)n2)n[nH]1
a: 7 to 30

====

# System: IL-4 induced STAT6 phosphorylation in THP-1 human monocytic cells
# Measurement Protocol: Cellular JAK potency assay, THP-1
# Particulars: Homo sapiens, THP-1, read-out: THP-1 IL4 pIC50 (converted)
Measure Name: IC50

// solved cases for IC50 follow
Chemical Structure	Measure Name	Endpoint Result
Cc1cnc2cc(Nc3cc(C)[nH]n3)nc(N[C@@H]3C[C@H]4CC[C@@H](C3)N4S(C)(=O)=O)c2c1	IC50	< 31.6 nM
COc1ccnc2cc(Nc3cc(C)[nH]n3)nc(N[C@@H]3C[C@H]4CC[C@@H](C3)N4C(=O)C(F)F)c12	IC50	31.6 to 200 nM

Lab note: each compound below needs its IC50 filled in.
1. Cc1cc(Nc2cc3nc(CN4CCOCC4)ccc3c(N[C@@H]3C[C@H]4CC[C@@H](C3)N4CC(F)(F)F)n2)n[nH]1
2. Cc1cc(Nc2cc3ncccc3c(N[C@@H]3C[C@H]4CC[C@@H](C3)N4CCC#N)n2)n[nH]1
3. Cc1cc(Nc2cc3ncccc3c(N[C@@H]3C[C@H]4CC[C@@H](C3)N4S(=O)(=O)C(C)C)n2)n[nH]1

a:
< 31.6 nM
31.6 to 200 nM
< 31.6 nM

====

# System Tested: UniProtKB O60674
# Sequence (O60674 whole entry): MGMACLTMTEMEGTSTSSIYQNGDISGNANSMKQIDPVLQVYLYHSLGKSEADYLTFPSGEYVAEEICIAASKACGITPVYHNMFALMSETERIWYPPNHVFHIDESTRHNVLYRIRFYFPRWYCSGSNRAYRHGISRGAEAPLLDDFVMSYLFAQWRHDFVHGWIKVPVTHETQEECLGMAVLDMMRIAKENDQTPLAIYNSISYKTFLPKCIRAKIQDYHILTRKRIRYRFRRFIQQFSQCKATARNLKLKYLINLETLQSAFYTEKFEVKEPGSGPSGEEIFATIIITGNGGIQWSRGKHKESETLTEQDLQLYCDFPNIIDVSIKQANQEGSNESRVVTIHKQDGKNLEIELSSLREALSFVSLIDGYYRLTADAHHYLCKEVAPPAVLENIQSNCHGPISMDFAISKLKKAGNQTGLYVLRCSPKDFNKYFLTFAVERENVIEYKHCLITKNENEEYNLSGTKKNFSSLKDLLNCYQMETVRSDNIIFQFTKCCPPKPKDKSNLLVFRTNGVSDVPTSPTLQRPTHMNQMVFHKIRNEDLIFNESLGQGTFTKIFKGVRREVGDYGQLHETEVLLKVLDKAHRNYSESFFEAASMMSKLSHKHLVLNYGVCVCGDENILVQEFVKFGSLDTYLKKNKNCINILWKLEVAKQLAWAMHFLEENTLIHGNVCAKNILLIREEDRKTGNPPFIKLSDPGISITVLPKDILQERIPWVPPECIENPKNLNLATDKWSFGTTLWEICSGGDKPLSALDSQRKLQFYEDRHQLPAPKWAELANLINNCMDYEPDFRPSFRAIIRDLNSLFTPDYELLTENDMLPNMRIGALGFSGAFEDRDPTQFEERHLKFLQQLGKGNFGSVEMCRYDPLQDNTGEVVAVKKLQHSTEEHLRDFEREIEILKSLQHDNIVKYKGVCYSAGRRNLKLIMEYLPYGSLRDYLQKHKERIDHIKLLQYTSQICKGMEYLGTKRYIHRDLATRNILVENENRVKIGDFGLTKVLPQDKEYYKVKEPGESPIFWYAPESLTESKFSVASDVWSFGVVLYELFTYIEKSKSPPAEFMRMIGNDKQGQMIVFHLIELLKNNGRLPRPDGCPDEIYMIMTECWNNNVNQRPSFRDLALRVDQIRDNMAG
# Measurement Protocol: LanthaScreen JAK biochemical assay (JAK2)
# Particulars: read-out: JAK 2 (pKi) (converted)
Measure Name: Ki

// solved cases for Ki follow
Compound	Ki
COc1ccnc2cc(Nc3cc(C)[nH]n3)nc(N[C@@H]3C[C@H]4CC[C@@H](C3)N4C3(CC#N)COC3)c12	0.1 to 1 nM
Cc1cc(Nc2cc3ncccc3c(N[C@@H]3C[C@H]4CC[C@@H](C3)N4C3CCCOC3=O)n2)n[nH]1 (stereo partly shown)	1 to 100 nM

Lab note: each compound below needs its Ki filled in.
1. Cc1cc(Nc2cc3ncccc3c(N[C@@H]3C[C@H]4CC[C@@H](C3)N4S(C)(=O)=O)n2)n[nH]1
2. COc1ccc2c(N[C@@H]3C[C@H]4CC[C@@H](C3)N4S(C)(=O)=O)nc(Nc3cc(C)[nH]n3)cc2n1

a:
0.1 to 1 nM
0.1 to 1 nM

====

# System: IL-4 induced STAT6 phosphorylation in THP-1 human monocytic cells
# Measurement Protocol: Cellular JAK potency assay, THP-1
# Particulars: Homo sapiens, THP-1, read-out: THP-1 IL4 pIC50 (converted)
Would you kindly list IC50 for each of these molecules?

// solved cases for IC50 follow
Molecule	Measure Name	Endpoint Result
Cc1cc(Nc2cc3nc(CN4CCOCC4)ccc3c(N[C@@H]3C[C@H]4CC[C@@H](C3)N4S(=O)(=O)N3CCC3)n2)n[nH]1 [Example 5-21]	IC50	< 31.6 nM
COC(=O)c1cnc2cc(Nc3cc(C)[nH]n3)nc(N[C@@H]3C[C@H]4CC[C@@H](C3)N4C3CCCOC3=O)c2c1 (stereo partly drawn) [Example 16]	IC50	31.6 to 200 nM
Cc1cc(Nc2cc3nc(CN4CCC(F)(F)CC4)ccc3c(N[C@@H]3C[C@H]4CC[C@@H](C3)N4S(=O)(=O)c3cncc(F)c3)n2)n[nH]1 [Example 5-31]	IC50	31.6 to 200 nM

Lab note: each molecule below needs its IC50 filled in.
1. Cc1cc(Nc2cc3ncccc3c(N[C@@H]3C[C@H]4CC[C@@H](C3)N4S(=O)(=O)C3CNC3)n2)n[nH]1 [Example 4-9]
2. Cc1cc(Nc2cc3nc(CO)ccc3c(N[C@@H]3C[C@H]4CC[C@@H](C3)N4S(C)(=O)=O)n2)n[nH]1 [Example 5-12]
3. CNC(=O)CN1[C@@H]2CCC[C@H]1C[C@H](Nc1nc(Nc3cc(C)[nH]n3)cc3ncccc13)C2 [Example 17]

a:
1. > 200 nM
2. 31.6 to 200 nM
3. 31.6 to 200 nM
